# measured target: human TLR8 (Homo sapiens, UniProt Q9NR97)
# procedure text: TLR8 inhibition reporter assay (HEK-Blue SEAP)
# assay context: HEK-Blue cells overexpressing human TLR8, R848 15.9 μM, 22 hour incubation
Class (required): determined from IC50; valid ranges are small value = under 2 nM, mid value = from 2 nM up to 5 nM, large value = 5 nM and over

Answered cases to consult:
CCC(C)N1CCC[C@@H](n2c(=O)[nH]c3cc(-c4cc(C)c5ncnn5c4)c(C)cc32)C1 (stereo partly shown) | large value
COc1c(C)c(-c2cc3[nH]c(=O)n(C4CCC(NCC5(S(C)(=O)=O)CC5)CC4)c3cc2C(C)C)cn2ncnc12 (single isomer, unassigned) [Example 259] | small value
CCN[C@H]1CC[C@@H](n2c(=O)[nH]c3cc(-c4cc(OC)c5ncnn5c4)c(C)cc32)CC1 | large value
CCc1cc2c(cc1-c1cc(OC)c3ncnn3c1)[nH]c(=O)n2[C@@H]1CCCN(CC2CC2)C1 | mid value
COc1c(C)c(-c2cc3[nH]c(=O)n(C4CCC(N5CC(F)C5)CC4)c3cc2C(C)C)cn2ncnc12 (single isomer, unassigned) [Example 264] | large value
COc1c(C)c(-c2cc3[nH]c(=O)n(C4CCC(N5CCC6(CC5)COC6)CC4)c3cc2C(C)C)cn2ncnc12 (single isomer, unassigned) [Example 267] | small value
Cc1cc2c(cc1-c1cc(C)c3ncnn3c1)[nH]c(=O)n2[C@@H]1CCCN(CCCC(F)(F)F)C1 | large value
CCCN(CCC)[C@H]1CC[C@@H](n2c(=O)[nH]c3cc(-c4cc(OC)c5ncnn5c4)c(CC)cc32)CC1 | small value

Query string: Bin this entry: COc1cc(-c2cc3[nH]c(=O)n(C4CCC(N5CC6(CCOCC6)C5)CC4)c3cc2C(C)C)cn2ncnc12 (single isomer, unassigned) [Example 236]
Result string: small value

Query string: Also, COc1cc(-c2cc3[nH]c(=O)n([C@@H]4CCCN(C5CCCOC5)C4)c3cc2C(C)C)cn2ncnc12 (single isomer, unassigned) [Example 219] please.
Result string: small value

Query string: Entry Cc1c(-c2cc3[nH]c(=O)n([C@@H]4CCCN(CC5CCOCC5)C4)c3cc2C(C)C)cn2ncnc2c1C please
Result string: mid value

Query string: Item: COc1cc(-c2cc3[nH]c(=O)n([C@@H]4CCCN(CC(C)C)C4)c3cc2C(C)C)cn2ncnc12
Result string: small value

Query string: # repeat for CCCN[C@H]1CC[C@@H](n2c(=O)[nH]c3cc(-c4cc(OC)c5ncnn5c4)c(C)cc32)CC1
Result string: small value

---

# measured target: human TLR8 (Homo sapiens, UniProt Q9NR97)
# Sequence (Q9NR97 27-1041): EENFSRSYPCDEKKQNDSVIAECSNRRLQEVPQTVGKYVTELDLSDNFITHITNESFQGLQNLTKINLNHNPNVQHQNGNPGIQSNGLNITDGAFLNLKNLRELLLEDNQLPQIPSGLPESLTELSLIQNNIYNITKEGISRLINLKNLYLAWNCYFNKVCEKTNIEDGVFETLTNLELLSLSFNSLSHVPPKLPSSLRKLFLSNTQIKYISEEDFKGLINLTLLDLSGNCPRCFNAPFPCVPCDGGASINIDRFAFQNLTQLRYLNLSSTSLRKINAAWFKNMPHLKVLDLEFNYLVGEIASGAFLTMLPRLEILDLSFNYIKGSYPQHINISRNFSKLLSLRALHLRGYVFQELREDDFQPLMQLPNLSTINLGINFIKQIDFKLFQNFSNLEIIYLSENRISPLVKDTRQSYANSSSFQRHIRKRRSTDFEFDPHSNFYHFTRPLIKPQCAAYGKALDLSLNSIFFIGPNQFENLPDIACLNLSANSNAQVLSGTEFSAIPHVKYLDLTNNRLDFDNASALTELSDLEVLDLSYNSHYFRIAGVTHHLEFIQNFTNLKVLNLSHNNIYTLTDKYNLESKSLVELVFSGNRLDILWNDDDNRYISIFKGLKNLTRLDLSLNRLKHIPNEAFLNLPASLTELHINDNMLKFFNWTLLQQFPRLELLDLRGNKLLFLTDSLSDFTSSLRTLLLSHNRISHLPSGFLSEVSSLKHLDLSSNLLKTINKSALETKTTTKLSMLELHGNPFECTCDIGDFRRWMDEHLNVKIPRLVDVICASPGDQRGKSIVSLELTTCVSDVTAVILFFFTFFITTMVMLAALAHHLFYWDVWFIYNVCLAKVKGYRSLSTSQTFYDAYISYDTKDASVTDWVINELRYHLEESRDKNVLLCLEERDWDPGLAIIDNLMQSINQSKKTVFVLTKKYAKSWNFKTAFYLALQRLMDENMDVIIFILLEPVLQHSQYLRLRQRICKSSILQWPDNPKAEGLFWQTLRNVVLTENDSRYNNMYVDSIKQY
# procedure text: TLR8 inhibition reporter assay (HEK-Blue SEAP)
# assay context: HEK-Blue cells overexpressing human TLR8, R848 15.9 μM, 22 hour incubation
outcome measure: pIC50
Here pIC50 is given on a logarithmic scale as minus log10 of the concentration in mol/L.

Study these solved cases before continuing.
Cc1c(-c2cc3[nH]c(=O)n(C4CCC(N5CC(F)C5)CC4)c3cc2C(C)C)cn2ncnc2c1C (stereo not shown) [Example 279] | 8.82
Cc1cc2c(cc1-c1cc(C)c3ncnn3c1)[nH]c(=O)n2[C@@H]1CCCN(Cc2ncn(C)n2)C1 | 6.66

// below: pIC50 requested for another compound
Query string: Need pIC50, item CCc1cc2c(cc1-c1cc(OC)c3ncnn3c1)[nH]c(=O)n2[C@@H]1CCCNC1
Result string: 8.16

Attribution: patent US12187723B2
